# Tested on: Vero cells
# assay-comment: Cytotoxicity assay (Cell Titer Glo)
# assay-conditions: Table 6; Vero cells
experimental-endpoint: CC50 (µM)
Please give a number only; it is taken to be in µM.

So what's the measured CC50 for this one? Cc1[nH]c2ccc(Br)cc2c1CCN 61.6

---

# assay-comment: in vitro
experimental-endpoint: CC50 (µM)
Give the value in µM but do not write µM after it.

Data request, read-out CC50, for Cc1ccc2[nH]c(-c3ccc(NC(=O)c4cccs4)cc3)nc2c1 27

---

# System: EV-68
# assay-comment: NIAID secondary assay, Neutral Red (CPE/Tox), EV-68
# assay-conditions: Enterovirus D, EV68, read-out: EC50 μM
experimental-endpoint: EC50

Tell me the measured EC50 of Cc1ccc2[nH]c(-c3ccc(NC(=O)c4cccs4)cc3)nc2c1 , please. 0.52 µM
